Test system: Human immunodeficiency virus 1
ASSAY INFO: Nucleocapsid p7 protein (NCp7) zinc finger domain reactivity was measured by Trp37 fluorescence assay expressed as the average decrease in relative fluorescence units over 30 min
Assay type: functional
// thresholds for Activity classes: low bracket = under 2 RFU min-1, middle bracket = from 2 RFU min-1 up to 4 RFU min-1, high bracket = 4 RFU min-1 and over

(Q) Which band does CC(=O)NS(=O)(=O)c1ccc(NC(=O)c2ccccc2SC(=O)CCCl)cc1 fall in?
(A) high bracket

(Q) Which band does CC(=O)Nc1ccc(S(=O)(=O)Nc2ccc(S(=O)(=O)c3ccc(NC(=O)c4ccccc4SSc4ccccc4C(=O)Nc4ccc(S(=O)(=O)c5ccc(NS(=O)(=O)c6ccc(NC(C)=O)cc6)cc5)cc4)cc3)cc2)cc1 fall in?
(A) high bracket

(Q) Which band does NS(=O)(=O)c1ccc(CCn2sc3ccccc3c2=O)cc1 fall in?
(A) middle bracket

(Q) Which band does O=C(Nc1ccc(S(=O)(=O)c2ccc(NS(=O)(=O)Cc3ccccc3[N+](=O)[O-])cc2)cc1)c1ccccc1SSc1ccccc1C(=O)Nc1ccc(S(=O)(=O)c2ccc(NS(=O)(=O)Cc3ccccc3[N+](=O)[O-])cc2)cc1 fall in?
(A) low bracket

(Q) Which band does O=C(Nc1ccc(S(=O)(=O)c2ccc([N+](=O)[O-])cc2)cc1)c1ccccc1SSc1ccccc1C(=O)Nc1ccc(S(=O)(=O)c2ccc([N+](=O)[O-])cc2)cc1 fall in?
(A) middle bracket

(Q) Which band does CC(=O)Nc1cccc(S(=O)(=O)c2cccc(NC(=O)c3ccccc3SC(=O)CCCC[n+]3ccccc3)c2)c1.[Br-] fall in?
(A) low bracket

(Q) Which band does CC(=O)NS(=O)(=O)c1ccc(NC(=O)c2ccccc2SC(=O)c2ccccc2)cc1 fall in?
(A) middle bracket

(Q) Which band does CC(=O)Nc1ccc(S(=O)(=O)c2ccc(NC(=O)c3ccccc3SSc3ccccc3C(=O)Nc3ccc(S(=O)(=O)c4ccc(NC(C)=O)cc4)cc3)cc2)cc1 fall in?
(A) high bracket

(Q) Which band does Nc1ccc(S(=O)(=O)c2ccc(NC(=O)c3ccccc3SSc3ccccc3C(=O)Nc3ccc(S(=O)(=O)c4ccc(N)cc4)cc3)cc2)cc1 fall in?
(A) middle bracket

(Q) Which band does COc1ccc(C(=O)Nc2ccc(S(=O)(=O)c3ccc(NC(=O)c4ccccc4SSc4ccccc4C(=O)Nc4ccc(S(=O)(=O)c5ccc(NC(=O)c6ccc(OC)cc6)cc5)cc4)cc3)cc2)cc1 fall in?
(A) high bracket

(Q) Which band does NS(=O)(=O)c1ccc(CCNC(=O)c2ccccc2SSc2ccccc2C(=O)NCCc2ccc(S(N)(=O)=O)cc2)cc1 fall in?
(A) middle bracket

(Q) Which band does CC(=O)NS(=O)(=O)c1ccc(NC(=O)c2ccccc2SC(=O)CCC[n+]2ccccc2)cc1.[Br-] fall in?
(A) middle bracket

(Q) Which band does NS(=O)(=O)c1ccc(NC(=O)CNC(=O)c2ccccc2SSc2ccccc2C(=O)NCC(=O)Nc2ccc(S(N)(=O)=O)cc2)cc1 fall in?
(A) high bracket

(Q) Which band does O=C(CCCC[n+]1ccccc1)Sc1ccccc1C(=O)Nc1ccc(S(=O)(=O)c2ccc(NS(=O)(=O)Cc3ccccc3[N+](=O)[O-])cc2)cc1.[Br-] fall in?
(A) low bracket

(Q) Which band does O=C(Nc1ccc(S(=O)(=O)c2ccc(NC(=O)c3ccccc3SSc3ccccc3C(=O)Nc3ccc(S(=O)(=O)c4ccc(NC(=O)c5cc([N+](=O)[O-])cc([N+](=O)[O-])c5)cc4)cc3)cc2)cc1)c1cc([N+](=O)[O-])cc([N+](=O)[O-])c1 fall in?
(A) low bracket

(Q) Which band does O=C(Nc1ccc(S(=O)(=O)c2ccc(NC(=O)c3ccccc3SSc3ccccc3C(=O)Nc3ccc(S(=O)(=O)c4ccc(NC(=O)c5ccc([N+](=O)[O-])cc5)cc4)cc3)cc2)cc1)c1ccc([N+](=O)[O-])cc1 fall in?
(A) middle bracket

(Q) Which band does O=C(CCCCBr)Sc1ccccc1C(=O)Nc1ccc(S(=O)(=O)c2ccc(NS(=O)(=O)Cc3ccccc3[N+](=O)[O-])cc2)cc1 fall in?
(A) low bracket

(Q) Which band does CC(=O)NS(=O)(=O)c1ccc(NC(=O)c2ccccc2SC(=O)CCCCC[n+]2ccccc2)cc1.[Br-] fall in?
(A) low bracket

(Q) Which band does Nc1cccc(S(=O)(=O)c2cccc(NC(=O)c3ccccc3SSc3ccccc3C(=O)Nc3cccc(S(=O)(=O)c4cccc(N)c4)c3)c2)c1 fall in?
(A) low bracket

(Q) Which band does CC(=O)NS(=O)(=O)c1ccc(NC(=O)c2ccccc2SC(C)=O)cc1 fall in?
(A) high bracket

(Q) Which band does CC(=O)Nc1ccc(S(=O)(=O)Nc2ccc(S(=O)(=O)c3ccc(-n4sc5ccccc5c4=O)cc3)cc2)cc1 fall in?
(A) high bracket
